# Test system: Escherichia coli TOP10;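 also: peptides expressed intracellularly from a pBAD plasmid library in pooled LB shake-flask culture, induced with 0.3% L-arabinose, DNA abundance read by NGS, three biological replicates, DESeq2 with apeglm shrinkage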
# measurementProtocol: shrunken log2 fold change of peptide-encoding DNA abundance (4.5 h post-induction vs induction); higher = less antimicrobial activity (less host growth inhibition)
# assaySetup: time post-induction: 4.5 h; library: site-saturation at positions 5, 18, 19, 20
Each entry below carries its recorded shrunken log2 fold change.
Write no unit; give the number alone.

Consider the following illustrative entries.
RRIRARPPRLPRPRPRPINYPRP = -0.239
RRIRMRPPRLPRPRPRPLPQPRP = 0.742
RRIRHRPPRLPRPRPRPKYTPRP = 0.973
RRIRFRPPRLPRPRPRPAPFPRP = -0.236
RRIRERPPRLPRPRPRPDPDPRP = -0.0294
RRIRQRPPRLPRPRPRPGHGPRP = -0.124
RRIRMRPPRLPRPRPRPFTDPRP = 0.174
RRIRWRPPRLPRPRPRPRLVPRP = 0.476
RRIRLRPPRLPRPRPRPITWPRP = -0.543
RRIRSRPPRLPRPRPRPNHYPRP = -0.789

# input for lookup
Value sought: shrunken log2 fold change, system Escherichia coli TOP10, item RRIRGRPPRLPRPRPRPGMRPRP . Result: 1.68
